Target: T1, mature human GDF-15 (human, UniProt Q99988 197-308)
T1 construct: Homodimer; also called hGDF-15; recombinant hu-GDF15
T1 sequence: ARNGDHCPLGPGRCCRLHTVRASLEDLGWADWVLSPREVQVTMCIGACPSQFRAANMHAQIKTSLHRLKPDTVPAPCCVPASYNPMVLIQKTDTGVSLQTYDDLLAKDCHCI
Test: HTRF epitope competition; competitor DyLight 650 labelled Antibody A; Europium labelled human GDF-15
PROPERTY: IC50 (nM)
Could you give me the number in nM? Just the number is fine.

>  <BINDER>
AB1170249 (antibody, IgG1, V domains shown, Humanized IgG1 TM; not shown: human immunoglobulin kappa light chain constant domain) VH: QVQLQESGPGLLKPSQTLSLTCTVSGFSLSTYGMGVGWIRQPLGKGLEWLANIWWNDDKYYNSALKSRLTISKDTSKNQVSLKLSSVTAADTAVYYCAQMAYSWFAYWGQGTLVTVSS VL: DIQMTQSPSFLSASVGDRVTITCKASQNMDTNVAWYQQKPGQPPKALIYSASYRYSGVPDRFSGSGSGTDFTLTISSLQAEDVAVYYCQQYNSYPFTFGQGTKLEIK

>  <MEASURED VALUE>
0.406

$$$$

Continue with the next binder.
For AB1170072 (antibody, V domains shown) VH: QVTLKESGPGILQPSQTLSLTCSFSGFSLSTYGMGVGWIRQPSGKGLEWLANIWWNDDKYYNSALKSRLTISKDTSNNQVFLKISSVDTADTATYYCAQMAYSWFAYWGQGTLVTVSS VL: DIVMTQSQKFMSTSVGDRVSVTCKASQNMDTNVAWYQQKPGQSPKALIYSASYRYSGVPDRFTGSGSGTDFTLTISNVQSEDLAEYFCQQYNSYPFTFGSGTKLEIK , what is its reported IC50?
0.693
